- target.desc: BRD4 (BD1) (Homo sapiens)
- Construct: with relatively long constructs also being possible, preferably amino acids 44-168
- assay.notes: Binding assay BRD4/acetylated peptide H4 (TR-FRET protein-protein interaction assay)
pIC50: −log10 of the molar value.
Lab note: anything with pIC50 at or over 7 counts as Condition met; the rest go in Condition not met.

| compound | label.class |
| --- | --- |
| CNC(=O)N1N=C(c2ccc(-c3c(C)noc3C)cc2)c2cc(-n3nc(C)cc3C)ccc2CC1C (racemic) [Example 175] | Condition not met |

*Q* Does pIC50 meet or surpass 7 for CNC(=O)N1N=C(c2ccc(-c3cccc(C(=O)NCCN(C)C)c3)cc2)c2cc(OC)c(OC)cc2CC1C (racemic) [Example 113] ?
*A* Condition met

*Q* Can CNC(=O)N1N=C(c2ccc(N3CCNCC3=O)cc2)c2cc(OC)c(OC)cc2CC1C (racemic) [Example 44] be said to have pIC50 at or above 7?
*A* Condition met

*Q* Hi team, for CNC(=O)N1N=C(c2ccc(-c3ccc(C(=O)N4CCOCC4)cc3)cc2)c2cc(OC)c(OC)cc2CC1C (racemic) [Example 79] , is the recorded pIC50 at or above 7?
*A* Condition met

*Q* Answer whether pIC50 of CNC(=O)N1N=C(c2ccc(-c3c(C)nn(C)c3C)cc2)c2cc(OC(F)(F)F)ccc2C[C@H]1C [Example 249.2] is greater than or equal to 7.
*A* Condition not met

*Q* Given CNC(=O)N1N=C(c2ccc(Cl)cc2)c2ccc(N3CCOCC3=O)cc2CC1C (racemic) [Example 232] , state whether its pIC50 is at least 7.
*A* Condition not met

*Q* Decide: pIC50 of CNC(=O)N1N=C(c2ccc(Cl)cc2)c2cc(OCCN3CCOCC3)ccc2CC1C (racemic) [Example 32] >= 7?
*A* Condition not met

*Q* Threshold query (pIC50 >= 7) on CNC(=O)N1N=C(c2ccc(-c3c(C)nn(C)c3C)cc2)c2cc(OC)c(OC)cc2CC1C (racemic) [Example 51]
*A* Condition met

*Q* Given the entry CNC(=O)N1N=C(c2ccc(-c3ccc(Cl)cc3)cc2)c2cc(OC)c(OC)cc2CC1C (racemic) [Example 63] , answer whether its pIC50 meets or surpasses 7.
*A* Condition not met

*Q* In plain terms: is recorded pIC50 at least 7 for CNC(=O)N1N=C(c2ccc(N3CCOCC3)cc2)c2cc(OC)c(OC)cc2C[C@@H]1C [Example 7.2] ?
*A* Condition met

* * *

- System: LOX-IMVI cells
- assay.notes: Cell proliferation assay (alamarBlue), LOX-IMVI
- Type: cell-based
- test.context: Homo sapiens, 72 hours incubation, inhibition of cell proliferation
Binning scheme for IC50: lowest: < 300 nM; middle: ≥ 300 nM and < 400 nM; highest: ≥ 400 nM

| molecule | label.class |
| --- | --- |
| CNC(=O)N1N=C(c2ccc(-c3c(C)nn(C)c3C)cc2)c2cc(OC)c(OC)cc2CC1C (racemic) | middle |
| CNC(=O)N1N=C(c2ccc(-c3sc(C)nc3C)cc2)c2cc(OC)c(OC)cc2CC1C (racemic) | middle |
| CNC(=O)N1N=C(c2ccc(-n3nc(C)cc3C)cc2)c2cc(OC)ccc2C[C@@H]1C | highest |
| CNC(=O)N1N=C(c2ccc(-n3nc(-c4ccccc4)cc3C)cc2)c2cc(OC)c(OC)cc2CC1C (racemic) | lowest |
| CNC(=O)N1N=C(c2ccc(-n3nc(-c4ccccc4)cc3C3CC3)cc2)c2cc(OC)c(OC)cc2CC1C (racemic) | lowest |

*Q* Hi, small favor: classify CNC(=O)N1N=C(c2ccc(-c3cccc(C(=O)N4CCCC4)c3)cc2)c2cc(OC)c(OC)cc2CC1C (racemic) by its IC50 when you get a moment.
*A* lowest

*Q* State the class of the molecule shown: CNC(=O)N1N=C(c2ccc(-c3cnoc3)cc2)c2cc(OC)c(OC)cc2CC1C (racemic)
*A* highest

*Q* Exam item: assign CNC(=O)N1N=C(c2ccc(N3CCCCC3)cc2)c2cc(OC)c(OC)cc2CC1C (racemic) to the correct category.
*A* middle

*Q* Quick check: band for CNC(=O)N1N=C(c2ccc(-c3c(C)nn(C)c3C)cc2)c2cc(OC)ccc2C[C@@H]1C
*A* lowest

*Q* Would you mind sorting CNC(=O)N1N=C(c2ccc(N3CCN(C(C)=O)CC3)cc2)c2cc(OC)c(OC)cc2CC1C (racemic) into the appropriate category?
*A* highest

*Q* Which class is correct for the following molecule? CNC(=O)N1N=C(c2ccc(-c3c(C)nn(C)c3C)cc2)c2cc(OC)c(OC)cc2C[C@@H]1C
*A* lowest

*Q* Which bin, given its IC50, does CNC(=O)N1N=C(c2ccc(-c3cn(C)nn3)cc2)c2cc(OC)c(OC)cc2CC1C (racemic) occupy?
*A* middle

*Q* Form field 'band' for CNC(=O)N1N=C(c2ccc(-n3ccc(-c4ccc(F)cc4)n3)cc2)c2cc(OC)c(OC)cc2C[C@@H]1C
*A* middle
